molecular target: TDP-43 RRM1-RRM2 (human, UniProt Q13148 101-265); experiment: fluorescence polarization
Sequence (Q13148 101-265): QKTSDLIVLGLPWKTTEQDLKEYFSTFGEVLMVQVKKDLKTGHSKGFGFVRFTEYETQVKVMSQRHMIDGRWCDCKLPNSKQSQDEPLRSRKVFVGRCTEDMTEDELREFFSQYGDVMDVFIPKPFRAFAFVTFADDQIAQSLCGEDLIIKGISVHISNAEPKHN
measurement type: Kd (nM)
Answers are plain numbers, in nM.

Give reported Kd value for UGUGUGUGUGUG (ssRNA) [(UG)6 RNA]
9.5
